- assay-target: Na+-taurocholate cotransporting polypeptide (NTCP) (Homo sapiens, UniProt Q14973, S213R)
- Construct: NTCP-p.S213R, stably expressed in HEK cells
- procedure-summary: inhibition of [3H]taurocholate uptake in NTCP-S213R-expressing HEK cells; sodium-dependent remdesivir uptake Km […]
measurement-type: pIC50
Answer as the number alone; pIC50 is minus log10 of concentration in mol/L.

stdin: May I ask what pIC50 has been recorded for CCC(CC)COC(=O)[C@H](C)N[P@](=O)(OC[C@H]1O[C@@](C#N)(c2ccc3c(N)ncnn23)[C@H](O)[C@@H]1O)Oc1ccccc1 ?
stdout: 4.20

----------
- assay-target: Na+-taurocholate cotransporting polypeptide (NTCP) (Homo sapiens, UniProt Q14973, R185C)
- Construct: NTCP-p.R185C, stably expressed in HEK cells
- Sequence (Q14973 1-349 R185C): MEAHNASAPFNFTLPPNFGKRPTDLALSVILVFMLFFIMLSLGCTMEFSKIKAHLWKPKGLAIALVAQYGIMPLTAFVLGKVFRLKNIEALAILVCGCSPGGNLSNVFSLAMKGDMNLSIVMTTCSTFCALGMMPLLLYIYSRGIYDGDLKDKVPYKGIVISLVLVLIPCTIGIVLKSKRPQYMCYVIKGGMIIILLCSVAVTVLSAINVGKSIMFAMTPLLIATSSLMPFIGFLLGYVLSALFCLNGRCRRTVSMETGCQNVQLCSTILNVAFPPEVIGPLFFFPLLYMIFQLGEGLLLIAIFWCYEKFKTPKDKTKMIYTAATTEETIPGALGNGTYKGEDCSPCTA
- procedure-summary: inhibition of [3H]taurocholate uptake in NTCP-R185C-expressing HEK cells; sodium-dependent remdesivir uptake Km […]
measurement-type: pIC50
Friendly reminder that pIC50 comes from taking -log10 of the concentration in mol/L.

stdin: May I ask what pIC50 has been recorded for CCC(CC)COC(=O)[C@H](C)N[P@](=O)(OC[C@H]1O[C@@](C#N)(c2ccc3c(N)ncnn23)[C@H](O)[C@@H]1O)Oc1ccccc1 [remdesivir] ?
stdout: 4.19

----------
- assay-target: Na+-taurocholate cotransporting polypeptide (NTCP) (Homo sapiens, UniProt Q14973)
- procedure-summary: inhibition of [3H]taurocholate uptake in NTCP-expressing HEK cells; remdesivir also taken up sodium-dependently (Km […])
measurement-type: pIC50
Scale note: pIC50 = -log10(concentration in M).

stdin: Quick check: pIC50 of CCC(CC)COC(=O)[C@H](C)N[P@](=O)(OC[C@H]1O[C@@](C#N)(c2ccc3c(N)ncnn23)[C@H](O)[C@@H]1O)Oc1ccccc1 ?
stdout: 4.04
